Where these numbers come from: patent US5705487A

Catalogue of compounds with associated Kass × 10^6 (L/mole) Trypsin
# Assay Target: Bovine trypsin (Bos taurus)
# Construct: Bovine trypsin is purchased from Worthington Biochemicals; purchased Worthington Biochemicals, Freehold, N.J
# Sequence (P00760 24-246): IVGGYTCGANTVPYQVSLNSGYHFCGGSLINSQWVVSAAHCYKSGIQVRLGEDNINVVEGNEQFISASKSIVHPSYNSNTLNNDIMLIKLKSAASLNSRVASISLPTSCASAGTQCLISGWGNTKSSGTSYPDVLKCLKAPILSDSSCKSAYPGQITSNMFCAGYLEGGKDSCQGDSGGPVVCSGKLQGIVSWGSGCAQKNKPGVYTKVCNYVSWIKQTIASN
# Experiment Summary: Kass, trypsin chromogenic substrate assay
# Assay type: biochemical
# Particulars: substrate N-Benzoyl-Phe-Val-Arg-p-nitroanilide

Examples from the recorded data:
{"columns": ["Compound", "Kass × 10^6 (L/mole) Trypsin"],
 "data": [
  ["N=C(N)c1cccc(CCNC(=O)[C@@H]2CCCN2C(=O)[C@@H]2NCC[C@@H]3CCCC[C@@H]32)c1", "0.02 × 10^6 L/mole"],
  ["Cl.N=C(N)c1ccc(CNC(=O)[C@@H]2CCCN2C(=O)[C@@H](CC2CCCCC2)NCC(=O)O)c(F)c1", "240. × 10^6 L/mole"],
  ["Cl.Cl.Cl.N=C(N)c1ccc(CNC(=O)[C@@H]2C[C@@H]3CCCC[C@@H]3N2C(=O)[C@H]2CCCCN2)cc1 (relative stereo) [Example 20, D-hPro-Ohi-p-NHCH2 C6 H4 C(NH)NH2.3HCl]", "19 × 10^6 L/mole"]
]}

Please look at the following compound next.
Query string: Query the reported Kass × 10^6 (L/mole) Trypsin for Bovine trypsin (Bos taurus); item: CCS(=O)(=O)N[C@H](Cc1ccccc1)C(=O)N1[C@H](C(=O)NCc2ccc(C(=N)N)cc2)C[C@@H]2CCCC[C@@H]21 (relative stereo)
Result string: 110. × 10^6 L/mole

---

# System: Human Plasma
# Experiment Summary: Human plasma anticoagulation, activated partial thromboplastin time (APTT)
# Assay type: biochemical
# Particulars: concentration required to double the clotting time
Value Type: Human Plasma Anticoagulation 2x Clotting time APTT

Examples from the recorded data:
{"columns": ["Molecule", "Result"],
 "data": [
  ["N=C(N)Nc1ccc(CNC(=O)[C@@H]2CCCN2C(=O)[C@@H]2NCC[C@@H]3CCCC[C@@H]32)cc1 [Example 38]", "6,100 ng/mL"],
  ["Cl.O=C(O)CN[C@H](CC1CCCCC1)C(=O)N1CCC[C@H]1C(=O)NCCCC1=CCNCC1 [Example 60]", "22,200 ng/mL"],
  ["N=C(N)C1CCC(CNC(=O)[C@@H]2CCCN2C(=O)[C@@H](CC2CCCCC2)NCC(=O)O)NC1 (stereo partly shown) [Example 67]", "1,800 ng/mL"]
]}

Please look at the following molecule next.
Query string: Dear colleague, I am looking for the recorded Human Plasma Anticoagulation 2x Clotting time APTT of the following molecule: CCS(=O)(=O)N[C@H](Cc1ccccc1)C(=O)N1CCC[C@H]1C(=O)NCCCc1cccc(C(=N)N)c1 [Example 31]
Result string: 34,500 ng/mL

---

# Assay Target: Human plasmin (Homo sapiens)
# Construct: Human plasmin is purchased from Boehringer Mannheim; purchased Boehringer Mannheim, Indianapolis, Ind
# Sequence (P00747 581-810 limits assumed): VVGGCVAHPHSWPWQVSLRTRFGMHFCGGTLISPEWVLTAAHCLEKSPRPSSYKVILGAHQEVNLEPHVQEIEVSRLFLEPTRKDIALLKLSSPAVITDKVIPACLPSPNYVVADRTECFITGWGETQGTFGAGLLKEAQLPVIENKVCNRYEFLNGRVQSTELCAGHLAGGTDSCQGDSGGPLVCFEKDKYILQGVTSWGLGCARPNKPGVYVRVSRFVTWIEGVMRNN
# Sequence (P00747 97-580 partner limits assumed): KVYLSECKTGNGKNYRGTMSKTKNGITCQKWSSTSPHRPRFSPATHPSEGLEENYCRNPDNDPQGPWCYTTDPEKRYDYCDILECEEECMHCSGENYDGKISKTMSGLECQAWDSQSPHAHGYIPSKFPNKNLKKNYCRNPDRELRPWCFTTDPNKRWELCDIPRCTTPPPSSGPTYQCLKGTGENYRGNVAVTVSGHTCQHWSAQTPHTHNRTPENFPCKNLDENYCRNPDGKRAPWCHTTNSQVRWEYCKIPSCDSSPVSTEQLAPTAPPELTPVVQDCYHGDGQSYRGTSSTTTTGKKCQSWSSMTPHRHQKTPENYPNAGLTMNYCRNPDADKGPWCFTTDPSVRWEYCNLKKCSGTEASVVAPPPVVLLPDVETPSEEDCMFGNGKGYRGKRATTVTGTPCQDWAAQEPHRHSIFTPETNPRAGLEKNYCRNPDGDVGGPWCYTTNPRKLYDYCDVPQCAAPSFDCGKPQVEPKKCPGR
# Experiment Summary: Kass, plasmin chromogenic substrate assay
# Assay type: biochemical
# Particulars: substrate H-D-Val-Leu-Lys-p-nitroanilide
Structures can show the parent of a compound that is named as a salt.
Catalogue of molecules with associated Kass × 10^6 (L/mole) Plasmin

{"columns": ["Molecule", "Value Type", "Result"],
 "data": [
  ["N=C(N)Nc1ccc(CNC(=O)[C@@H]2CCCN2C(=O)[C@@H]2NCC[C@@H]3CCCC[C@@H]32)cc1", "Kass × 10^6 (L/mole) Plasmin", "< 0.001 × 10^6 L/mole"],
  ["Cl.Nc1ccc(CCNC(=O)[C@@H]2CCCN2C(=O)[C@H](N)Cc2ccccc2)cc1 [Example 14, D-Phe-Pro-P-NHCH2 CH2 C6 H4 NH2.HCl]", "Kass × 10^6 (L/mole) Plasmin", "0.000046 × 10^6 L/mole"]
]}

Query string: Dear colleague, I am looking for the recorded Kass × 10^6 (L/mole) Plasmin of the following molecule: N=C(N)Nc1cccc(CNC(=O)[C@@H]2CCCN2C(=O)[C@@H]2NCC[C@@H]3CCCC[C@@H]32)c1
Result string: < 0.001 × 10^6 L/mole

Query string: Dear colleague, I am looking for the recorded Kass × 10^6 (L/mole) Plasmin of the following molecule: Cl.O=C(O)CN[C@H](CC1CCCCC1)C(=O)N1CCC[C@H]1C(=O)NCC1=CCNCC1
Result string: < 0.001 × 10^6 L/mole

Query string: Dear colleague, I am looking for the recorded Kass × 10^6 (L/mole) Plasmin of the following molecule: N=C(N)Nc1cccc(CCNC(=O)[C@@H]2CCCN2C(=O)[C@@H]2NCC[C@@H]3CCCC[C@@H]32)c1
Result string: < 0.001 × 10^6 L/mole

Query string: Dear colleague, I am looking for the recorded Kass × 10^6 (L/mole) Plasmin of the following molecule: Cl.Cl.N=C(N)c1ccc(CNC(=O)C2CC3CCCCC3N2C(=O)C2NCCC3CCCCC32)cc1 (stereo not shown)
Result string: 0.12 × 10^6 L/mole

Query string: Dear colleague, I am looking for the recorded Kass × 10^6 (L/mole) Plasmin of the following molecule: Cl.O=C(O)CNC(CC1CCCCC1)C(=O)N1CCCC1C(=O)NCCC1CCNCC1 (stereo not shown)
Result string: 0.01 × 10^6 L/mole

Query string: Dear colleague, I am looking for the recorded Kass × 10^6 (L/mole) Plasmin of the following molecule: N=C(N)Nc1ccc(CCNC(=O)[C@@H]2CCCN2C(=O)[C@@H]2NCC[C@@H]3CCCC[C@@H]32)cc1
Result string: < 0.001 × 10^6 L/mole

Query string: Dear colleague, I am looking for the recorded Kass × 10^6 (L/mole) Plasmin of the following molecule: Cl.N=C(N)c1cccc(CNC(=O)[C@@H]2CCCN2C(=O)[C@H](N)Cc2ccccc2)c1 [Example 16, D-Phe-Pro-m-NHCH2 C6 H4 C(NH)NH2.0.75HCl]
Result string: 0.0017 × 10^6 L/mole

Query string: Dear colleague, I am looking for the recorded Kass × 10^6 (L/mole) Plasmin of the following molecule: CCS(=O)(=O)N[C@H](Cc1ccccc1)C(=O)N1CCC[C@H]1C(=O)NCCc1ccc(C(=N)N)cc1
Result string: 0.01 × 10^6 L/mole

Query string: Dear colleague, I am looking for the recorded Kass × 10^6 (L/mole) Plasmin of the following molecule: N=C(N)NCCCCNC(=O)[C@@H]1CCCN1C(=O)[C@@H]1NCC[C@H]2CCCC[C@H]21 [Example 61, trihydrochloride]
Result string: 0.004 × 10^6 L/mole

Query string: Dear colleague, I am looking for the recorded Kass × 10^6 (L/mole) Plasmin of the following molecule: Cl.NC[C@H]1CC[C@H](CNC(=O)[C@@H]2CCCN2C(=O)[C@H](N)Cc2ccccc2)CC1 (relative stereo)
Result string: 0.00087 × 10^6 L/mole

Query string: Dear colleague, I am looking for the recorded Kass × 10^6 (L/mole) Plasmin of the following molecule: Cl.N=C(N)N1CCC(CNC(=O)[C@@H]2CCCN2C(=O)[C@@H](CC2CCCCC2)NCC(=O)O)CC1
Result string: 0.01 × 10^6 L/mole

Query string: Dear colleague, I am looking for the recorded Kass × 10^6 (L/mole) Plasmin of the following molecule: CCS(=O)(=O)N[C@H](Cc1ccccc1)C(=O)N1CCC[C@H]1C(=O)NCCc1cccc(C(=N)N)c1.Cl
Result string: < 0.001 × 10^6 L/mole

Query string: Dear colleague, I am looking for the recorded Kass × 10^6 (L/mole) Plasmin of the following molecule: Cl.Cl.Cl.N=C(N)c1ccc(CNC(=O)[C@@H]2C[C@@H]3CCCC[C@@H]3N2C(=O)[C@H]2CCCCN2)cc1 (relative stereo) [Example 20, D-hPro-Ohi-p-NHCH2 C6 H4 C(NH)NH2.3HCl]
Result string: 0.10 × 10^6 L/mole

Query string: Dear colleague, I am looking for the recorded Kass × 10^6 (L/mole) Plasmin of the following molecule: N=C(N)N1CCC(CCNC(=O)[C@@H]2CCCN2C(=O)[C@@H](CC2CCCCC2)NCC(=O)O)CC1
Result string: 0.01 × 10^6 L/mole

Query string: Dear colleague, I am looking for the recorded Kass × 10^6 (L/mole) Plasmin of the following molecule: CCOC(=O)N[C@H](Cc1ccccc1)C(=O)N1CCC[C@H]1C(=O)NCCCCN=C(N)N.Cl [Example 3, EtOCO-D-Phe-Pro-Agm.HCl]
Result string: 0.0046 × 10^6 L/mole

Query string: Dear colleague, I am looking for the recorded Kass × 10^6 (L/mole) Plasmin of the following molecule: Cl.O=C(O)CN[C@H](CC1CCCCC1)C(=O)N1CCC[C@H]1C(=O)NCCC1=CCNCC1
Result string: < 0.001 × 10^6 L/mole

Query string: Dear colleague, I am looking for the recorded Kass × 10^6 (L/mole) Plasmin of the following molecule: N=C(N)c1ccc(CNC(=O)[C@@H]2C[C@@H]3CCCC[C@@H]3N2C(=O)[C@@H](Cc2ccccc2)NCC(=O)O)cc1 (relative stereo)
Result string: 0.18 × 10^6 L/mole

Query string: Dear colleague, I am looking for the recorded Kass × 10^6 (L/mole) Plasmin of the following molecule: CCS(=O)(=O)N[C@H](Cc1ccccc1)C(=O)N1CCC[C@H]1C(=O)NCCCc1ccc(C(=N)N)cc1
Result string: < 0.001 × 10^6 L/mole

Query string: Dear colleague, I am looking for the recorded Kass × 10^6 (L/mole) Plasmin of the following molecule: CCS(=O)(=O)N[C@H](Cc1ccccc1)C(=O)N1CCC[C@H]1C(=O)NCCCc1cccc(C(=N)N)c1
Result string: < 0.001 × 10^6 L/mole

Query string: Dear colleague, I am looking for the recorded Kass × 10^6 (L/mole) Plasmin of the following molecule: N=C(N)c1cccc(CCCNC(=O)[C@@H]2CCCN2C(=O)[C@@H]2NCC[C@@H]3CCCC[C@@H]32)c1
Result string: < 0.001 × 10^6 L/mole

Query string: Dear colleague, I am looking for the recorded Kass × 10^6 (L/mole) Plasmin of the following molecule: CCS(=O)(=O)N[C@H](Cc1ccccc1)C(=O)N1CCC[C@H]1C(=O)NCc1cccc(C(=N)N)c1
Result string: < 0.001 × 10^6 L/mole
